Hello, the source for this data is the supplement of paper PMC11414989, in case you need it.

test system: Danio rerio larvae (Tropical 5D); test: mean angular velocity of exposed larvae, light phase (angular velocity (unit not stated)); higher = more movement; conditions: 66.5 µM, exposure window: 6 hpf to 120 hpf, static, assay age: 120 hpf (5 dpf)
ATTRIBUTE MEASURED: mean angular velocity of exposed larvae

[[record]]
compound = "NC(=O)C(F)(F)C(F)(F)C(F)(F)C(F)(F)F [Nonafluoropentanamide]"
attribute_measured = "mean angular velocity of exposed larvae"
result = 0.0723

[[record]]
compound = "C[Si](C)(C)C(F)(F)C(F)(F)C(F)(F)F"
attribute_measured = "mean angular velocity of exposed larvae"
result = 0.0503

[[record]]
compound = "NC(O)(C(F)(F)F)C(F)(F)F"
attribute_measured = "mean angular velocity of exposed larvae"
result = 0.0243


Request: What does the record list as mean angular velocity of exposed larvae for O=S(=O)(O)C(F)(F)C(F)(F)C(F)(F)C(F)(F)C(F)(F)C(F)(F)F ?
Response: 0.241

====

Below, each entry is listed alongside its reported mean angular velocity of exposed larvae.
system: Danio rerio larvae (Tropical 5D); test: mean angular velocity of exposed larvae, light phase (angular velocity (unit not stated)); higher = more movement; details: 0.046 µM, exposure window: 6 hpf to 120 hpf, static, assay age: 120 hpf (5 dpf)
Simply state the number, no unit and no words.

[[record]]
compound = "NC(O)(C(F)(F)F)C(F)(F)F"
number = 0.0195

[[record]]
compound = "O=S(=O)(O)C(F)(F)C(F)(F)C(F)(F)C(F)(F)C(F)(F)C(F)(F)F"
number = 0.0902

[[record]]
compound = "C[Si](C)(C)C(F)(F)C(F)(F)C(F)(F)F"
number = 0.0534


Attention now turns to another entry.
Request: Could you share which mean angular velocity of exposed larvae value was measured for NC(=O)C(F)(F)C(F)(F)C(F)(F)C(F)(F)F [Nonafluoropentanamide] ?
Response: 0.153

====

system: Danio rerio larvae (Tropical 5D); assay: mean angular velocity of exposed larvae, dark phase (angular velocity (unit not stated)); higher = more movement; settings: 1 µM, exposure window: 6 hpf to 120 hpf, static, assay age: 120 hpf (5 dpf)
mean angular velocity of exposed larvae listing for selected molecules.
Kindly provide the number alone.

[[record]]
molecule = "Cc1cccc2c1ccc1ccccc12"
attribute_measured = "mean angular velocity of exposed larvae"
number = 0.432

[[record]]
molecule = "Cc1ccc2c(ccc3ccccc32)c1"
attribute_measured = "mean angular velocity of exposed larvae"
number = 0.536

[[record]]
molecule = "CN1C(=O)CN=C(c2ccccc2)c2cc(Cl)ccc21"
attribute_measured = "mean angular velocity of exposed larvae"
number = 1.05


Next:
Request: Look up mean angular velocity of exposed larvae: c1ccc2c(c1)c1cccc3c4ccccc4c4cccc2c4c13 [Dibenzo[e-l]pyrene]
Response: 0.415

====

Entries and their measured mean angular velocity of exposed larvae follow.
tested on: Danio rerio larvae (Tropical 5D); assay: mean angular velocity of exposed larvae, dark phase (angular velocity (unit not stated)); higher = more movement; conditions: 11.1 µM, exposure window: 6 hpf to 120 hpf, static, assay age: 120 hpf (5 dpf)
Write the value as a bare number.

The examples below pair each entry with its known result.
[[record]]
compound = "C[Si](C)(C)C(F)(F)C(F)(F)C(F)(F)F"
target_under_test = "Danio rerio larvae (Tropical 5D)"
number = 0.685

[[record]]
compound = "NC(=O)C(F)(F)C(F)(F)C(F)(F)C(F)(F)F [Nonafluoropentanamide]"
target_under_test = "Danio rerio larvae (Tropical 5D)"
number = 0.903

[[record]]
compound = "O=S(=O)(O)C(F)(F)C(F)(F)C(F)(F)C(F)(F)C(F)(F)C(F)(F)F"
target_under_test = "Danio rerio larvae (Tropical 5D)"
number = 0.954


Attention now turns to another entry.
Request: Dear colleague, I am looking for the recorded mean angular velocity of exposed larvae of the following compound: NC(O)(C(F)(F)F)C(F)(F)F
Response: 0.423
